Give measured IC50 for each item. Keep answers brief.
systemName: human c-MER catalytic domain (Homo sapiens (Human))
Sequence (Q12866 587-858): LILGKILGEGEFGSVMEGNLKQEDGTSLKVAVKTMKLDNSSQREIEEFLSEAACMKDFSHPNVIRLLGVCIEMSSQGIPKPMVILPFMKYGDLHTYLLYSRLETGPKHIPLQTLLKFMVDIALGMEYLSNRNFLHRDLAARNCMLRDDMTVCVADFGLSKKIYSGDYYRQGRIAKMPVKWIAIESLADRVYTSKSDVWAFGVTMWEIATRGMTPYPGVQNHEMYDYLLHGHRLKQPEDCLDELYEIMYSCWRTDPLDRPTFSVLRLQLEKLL
protocolSummary: LanthaScreen TR-FRET kinase assay, c-MER
measurementConditions: read-out: Mer TK inhibition (IC50); Biochemical IC50, TR-FRET, 10 uM ATP

>  <compound>
CC(c1ccc(-c2ccc(CO[C@H]3CCC[C@@H]3NC(=O)c3cc(-c4ccc(F)nc4)cnc3N)cc2)cc1)N1CCN(C)CC1 (stereo in doubt) [Example 223]

>  <IC50>
< 10 nM

$$$$
>  <compound>
CN1CCN(Cc2ccc(-c3ccc(CO[C@H]4CCC[C@@H]4NC(=O)c4cc(-c5ccc(CN6CCN(C)CC6)cc5)cnc4N)cc3)cc2)CC1 [Example 368]

>  <IC50>
< 10 nM

$$$$
>  <compound>
C[C@H](c1ccc(-c2ccc(CO[C@H]3CCC[C@@H]3NC(=O)c3cc(-c4cnn(C)c4)cnc3N)cc2)cc1)N1CCNCC1 [Example 213]

>  <IC50>
< 10 nM

$$$$
>  <compound>
C[C@@H](CNC(=O)c1cc(-c2cnn(C)c2)cnc1N)OCc1ccc(Cl)cc1 [Example 103]

>  <IC50>
> 1000 nM

$$$$
>  <compound>
Cn1cc(-c2cnc(N)c(C(=O)N[C@H]3CCC[C@@H]3OCc3ccc(-c4ccc(CN5CCN(C6CC6)CC5)cc4)cc3)c2)cn1 [Example 184]

>  <IC50>
< 10 nM

$$$$
>  <compound>
C[C@H](COCc1ccccc1)NC(=O)c1cc(-c2cnn(C)c2)cnc1N [Example 98]

>  <IC50>
> 1000 nM

$$$$
>  <compound>
Cn1cc(-c2cnc(N)c(C(=O)N[C@H]3CCC[C@@H]3OCc3ccc(-c4ccc(CN5CCN(CCO)CC5)cc4Cl)cc3)c2)cn1 [Example 206]

>  <IC50>
< 10 nM

$$$$
>  <compound>
Cc1cccc(C)c1CO[C@H]1CCC[C@@H]1NC(=O)c1cc(-c2cnn(C)c2)cnc1N [Example 15]

>  <IC50>
> 1000 nM

$$$$
>  <compound>
CN1CCN(Cc2ccc(-c3ccc(CO[C@H]4CCC[C@@H]4NC(=O)c4cc(-c5ccc(N6CCOCC6)cc5)cnc4N)cc3)cc2)CC1 [Example 381]

>  <IC50>
< 10 nM

$$$$
>  <compound>
CN1CCN(Cc2ccc(-c3ccc(CO[C@H]4CCC[C@@H]4NC(=O)c4cc(-c5cnn(C)c5)cnc4N)cc3)cc2C(F)(F)F)CC1 [Example 197]

>  <IC50>
< 10 nM

$$$$

Hey, can you go through the list below and give me IC50 for every item?
1. Cn1cc(-c2cnc(N)c(C(=O)N[C@H]3CCC[C@@H]3OCc3ccc(-c4ccc(CN5CCN(CCO)CC5)cc4)cc3)c2)cn1 [Example 181]
2. CC(c1ccc(-c2ccc(CO[C@H]3CCC[C@@H]3NC(=O)c3cc(-c4cncc(F)c4)cnc3N)cc2)cc1)N1CCN(C)CC1 (stereo partly shown) [Example 230]
3. CCC1CN(Cc2ccc(-c3ccc(CO[C@H]4CCC[C@@H]4NC(=O)c4cc(-c5cnn(C)c5)cnc4N)cc3)cc2)CCN1C (stereo partly shown) [Example 188]

(A)
< 10 nM
< 10 nM
< 10 nM

Source listed as patent US10125118B2.
